# procedure-text: Cmax in beagle dog at 3 mg/kg, po
# Format: ADME, organism-based, Canis lupus familiaris
# Parameters: dose 3 mg/kg, route oral
# conditions: in vivo
measure-name: Cmax (µM)
Provide the reading as a plain figure in µM.

I would be grateful if you could share the reported Cmax for C[C@@H]1CC[C@@H](Oc2ccnc3c(F)cccc23)CN1C(=O)c1ccccc1-n1nccn1 .
5.65

* * *

# procedure-text: Oral bioavailability in Sprague-Dawley rat at 30 mg/kg
# conditions: in vivo
measure-name: bioavailability (%)
Provide the reading as a plain figure in %.

I would be grateful if you could share the reported bioavailability for C[C@@H]1CC[C@@H](Oc2ccnc3c(F)cccc23)CN1C(=O)c1ccccc1-n1nccn1 .
50

* * *

# procedure-text: AUC in beagle dog at 3 mg/kg, po
# Format: ADME, organism-based, Canis lupus familiaris
# Parameters: dose 3 mg/kg, route oral
# conditions: plasma
measure-name: AUC (µM·h)
Provide the reading as a plain figure in µM·h.

I would be grateful if you could share the reported AUC for C[C@@H]1CC[C@@H](Oc2ccnc3c(F)cccc23)CN1C(=O)c1ccccc1-n1nccn1 .
16

* * *

# procedure-text: Fraction unbound in human plasma
# Type: ADME, cell-free
measure-name: fraction unbound
In your answer, state the number alone without any accompanying words.

I would be grateful if you could share the reported fraction unbound for C[C@@H]1CC[C@@H](Oc2ccnc3c(F)cccc23)CN1C(=O)c1ccccc1-n1nccn1 .
0.03

* * *

# procedure-text: Plasma protein binding in rat
# Type: ADME, cell-free
# conditions: read-out: PPB (converted)
measure-name: fraction unbound

I would be grateful if you could share the reported fraction unbound for C[C@@H]1CC[C@@H](Oc2ccnc3c(F)cccc23)CN1C(=O)c1ccccc1-n1nccn1 .
0.04

* * *

# procedure-text: Aqueous solubility of the compound at pH 7
# Format: physicochemical
# conditions: aqueous medium
measure-name: solubility (µM)
Provide the reading as a plain figure in µM.

I would be grateful if you could share the reported solubility for C[C@@H]1CC[C@@H](Oc2ccnc3c(F)cccc23)CN1C(=O)c1ccccc1-n1nccn1 .
161

* * *

# procedure-text: Plasma protein binding in human
# Type: ADME, cell-free
# conditions: read-out: PPB (converted)
measure-name: fraction unbound
In your answer, state the number alone without any accompanying words.

I would be grateful if you could share the reported fraction unbound for C[C@@H]1CC[C@@H](Oc2ccnc3c(F)cccc23)CN1C(=O)c1ccccc1-n1nccn1 .
0.029

* * *

# procedure-text: Cmax in Sprague-Dawley rat at 30 mg/kg, po
# conditions: in vivo
measure-name: Cmax (µM)
Provide the reading as a plain figure in µM.

I would be grateful if you could share the reported Cmax for C[C@@H]1CC[C@@H](Oc2ccnc3c(F)cccc23)CN1C(=O)c1ccccc1-n1nccn1 .
15.7

* * *

# procedure-text: Tmax in Sprague-Dawley rat at 30 mg/kg, po
# conditions: in vivo
measure-name: Tmax (min)
Provide the reading as a plain figure in min.

I would be grateful if you could share the reported Tmax for C[C@@H]1CC[C@@H](Oc2ccnc3c(F)cccc23)CN1C(=O)c1ccccc1-n1nccn1 .
30

* * *

# procedure-text: AUC in Sprague-Dawley rat at 30 mg/kg, po
# conditions: plasma
measure-name: AUC (µM·h)
Provide the reading as a plain figure in µM·h.

I would be grateful if you could share the reported AUC for C[C@@H]1CC[C@@H](Oc2ccnc3c(F)cccc23)CN1C(=O)c1ccccc1-n1nccn1 .
30.1

* * *

# procedure-text: Oral bioavailability in Sprague-Dawley rat at 10 mg/kg
# Format: ADME, organism-based
# conditions: in vivo
measure-name: bioavailability (%)
Provide the reading as a plain figure in %.

I would be grateful if you could share the reported bioavailability for C[C@@H]1CC[C@@H](Oc2ccnc3c(F)cccc23)CN1C(=O)c1ccccc1-n1nccn1 .
19

* * *

# procedure-text: Lipophilicity, log D of the compound by HPLC analysis
# Type: physicochemical
measure-name: logD
In your answer, state the number alone without any accompanying words.

I would be grateful if you could share the reported logD for C[C@@H]1CC[C@@H](Oc2ccnc3c(F)cccc23)CN1C(=O)c1ccccc1-n1nccn1 .
2.35

* * *

# Organism: Homo sapiens
# procedure-text: Selectivity ratio of Ki for human OX1R to Ki for human OX2R
Please note: yes (1) applies when Ratio Ki is 90 or greater, and no (0) applies otherwise.

Reported Ratio Ki reaches at least 90 for CC1CCC(Oc2ccnc3c(Br)cccc23)CN1C(=O)c1ccccc1-n1nccn1 (racemic) ?
yes (1)

Reported Ratio Ki reaches at least 90 for Cc1cc(OC2CCC(C)N(C(=O)c3ccccc3-n3nccn3)C2)c2ccccc2n1 (racemic) ?
yes (1)

Reported Ratio Ki reaches at least 90 for Cc1ccc(-n2nccn2)c(C(=O)N2C[C@H](Oc3cccc4ccccc34)CC[C@H]2C)c1 (relative stereo) ?
no (0)

Reported Ratio Ki reaches at least 90 for CC1CCC(Oc2cccc3cccnc23)CN1C(=O)c1ccccc1-n1nccn1 (racemic) ?
no (0)

Reported Ratio Ki reaches at least 90 for Cc1ccc(-n2nccn2)c(C(=O)N2CCCC(Oc3ccc(F)c(C)c3)C2)c1 (stereo unspecified) ?
no (0)

Reported Ratio Ki reaches at least 90 for CC1CCC(Oc2ccnc3c(Cl)cccc23)CN1C(=O)c1ccccc1-n1nccn1 (racemic) ?
yes (1)

Reported Ratio Ki reaches at least 90 for Cc1ccc(-n2nccn2)c(C(=O)N2CCCC(COc3ccc(F)c(C)c3)C2)c1 (stereo unspecified) ?
no (0)

Reported Ratio Ki reaches at least 90 for C[C@@H]1CC[C@@H](Oc2ccnc3c(F)cccc23)CN1C(=O)c1ccccc1-c1ncccn1 ?
yes (1)

Reported Ratio Ki reaches at least 90 for CC1CCC(Oc2cccc3ncccc23)CN1C(=O)c1ccccc1-n1nccn1 (racemic) ?
yes (1)

Reported Ratio Ki reaches at least 90 for Cc1ccc(-c2ncccn2)c(C(=O)N2C[C@H](COc3ccc(F)cn3)CC[C@H]2C)c1 ?
no (0)

Reported Ratio Ki reaches at least 90 for CC1CCC(Oc2cccc3ccncc23)CN1C(=O)c1ccccc1-n1nccn1 (racemic) ?
yes (1)

Reported Ratio Ki reaches at least 90 for Cc1ccc(-n2nccn2)c(C(=O)N2CCCC(Oc3cccc4ccccc34)C2)c1 (stereo unspecified) ?
no (0)

Reported Ratio Ki reaches at least 90 for CC1CCC(Oc2ccnc3ccccc23)CN1C(=O)c1ccccc1-n1nccn1 (racemic) ?
yes (1)

Reported Ratio Ki reaches at least 90 for C[C@@H]1CC[C@@H](Oc2ccnc3c(F)cccc23)CN1C(=O)c1ccccc1-c1cccnc1 ?
yes (1)

Reported Ratio Ki reaches at least 90 for CC1CCC(Oc2cccc3cnccc23)CN1C(=O)c1ccccc1-n1nccn1 (racemic) ?
no (0)

* * *

# procedure-text: Plasma concentration in rat at 30 mg/kg, po after 30 mins
# Assay type: ADME, organism-based
# Parameters: dose 30 mg/kg, route oral
measure-name: concentration at 0.5 h

I would be grateful if you could share the reported concentration at 0.5 h for C[C@@H]1CC[C@@H](Oc2ccnc3c(F)cccc23)CN1C(=O)c1ccccc1-n1nccn1 .
9.5 µM

* * *

# procedure-text: Half life in Sprague-Dawley rat at 2 mg/kg, iv
# Assay type: ADME, organism-based
# Parameters: dose 2 mg/kg, route intravenous
# conditions: in vivo
measure-name: half-life (min)
Provide the reading as a plain figure in min.

I would be grateful if you could share the reported half-life for C[C@@H]1CC[C@@H](Oc2ccnc3c(F)cccc23)CN1C(=O)c1ccccc1-n1nccn1 .
24

* * *

Target protein (sequence): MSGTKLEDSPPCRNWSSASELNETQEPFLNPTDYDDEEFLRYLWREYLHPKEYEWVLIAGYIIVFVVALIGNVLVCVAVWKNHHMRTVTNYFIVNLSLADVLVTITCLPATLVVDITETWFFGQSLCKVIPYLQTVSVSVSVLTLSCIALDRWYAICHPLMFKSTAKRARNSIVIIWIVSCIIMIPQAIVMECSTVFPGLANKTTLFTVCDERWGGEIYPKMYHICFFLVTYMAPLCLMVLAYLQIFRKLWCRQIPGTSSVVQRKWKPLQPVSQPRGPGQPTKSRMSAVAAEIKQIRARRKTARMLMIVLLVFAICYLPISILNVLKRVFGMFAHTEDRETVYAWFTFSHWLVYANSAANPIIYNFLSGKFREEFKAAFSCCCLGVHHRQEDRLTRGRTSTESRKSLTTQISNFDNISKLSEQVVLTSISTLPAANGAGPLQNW
measure-name: pKi
Reminder that pKi means the negative base-10 logarithm of the concentration expressed in mol/L.

I would be grateful if you could share the reported pKi for C[C@@H]1CC[C@@H](Oc2ccnc3c(F)cccc23)CN1C(=O)c1ccccc1-c1ncccn1 .
9.10

I would be grateful if you could share the reported pKi for C[C@@H]1CC[C@@H](Oc2nccc3ccccc23)CN1C(=O)c1ccccc1-n1nccn1 (relative stereo) .
9.52

I would be grateful if you could share the reported pKi for CC1CCC(Oc2cccc3cccnc23)CN1C(=O)c1ccccc1-n1nccn1 (racemic) .
8.01

I would be grateful if you could share the reported pKi for CC1CCC(Oc2ccnc3c(Cl)cccc23)CN1C(=O)c1ccccc1-n1nccn1 (racemic) .
9.05

I would be grateful if you could share the reported pKi for C[C@@H]1CC[C@@H](Oc2ccnc3c(F)cccc23)CN1C(=O)c1ccccc1-n1nccn1 .
9.22

I would be grateful if you could share the reported pKi for C[C@@H]1CC[C@@H](Oc2ccnc3c(F)cccc23)CN1C(=O)c1ccccc1-c1cccnc1 .
7.20

I would be grateful if you could share the reported pKi for Cc1cc(OC2CCC(C)N(C(=O)c3ccccc3-n3nccn3)C2)c2ccccc2n1 (racemic) .
7.54

I would be grateful if you could share the reported pKi for CC1CCC(Oc2cccc3ccncc23)CN1C(=O)c1ccccc1-n1nccn1 (racemic) .
8.03

I would be grateful if you could share the reported pKi for CC1CCC(Oc2ccnc3c(F)cccc23)CN1C(=O)c1ccccc1-n1nccn1 (racemic) .
8.89

I would be grateful if you could share the reported pKi for Cc1ccc(-n2nccn2)c(C(=O)N2CCCC(Oc3cccc4ccccc34)C2)c1 (stereo not given) .
7.74
